biological target: muscarinic acetylcholine receptors; experiment: inhibition of specific binding of ^3 H-Oxotremorine-M (^3 H-Oxo); conditions: ^3 H-Oxotremorine 1.0 nM, rat cortex, 30 min. at 25° C.

{"compound": "CCCCCCOc1nsnc1OC1CN2CCC1CC2 (racemic)", "IC50 (nM)": 6.1}
{"compound": "CCCCSc1nsnc1O[C@H]1CN2CCC[C@@H]1C2 [Compound 138]", "IC50 (nM)": 0.65}
{"compound": "CCCCSc1nsnc1OC1CCCN2CCCC12 (mixture of isomers)", "IC50 (nM)": 38}
{"compound": "C#CCCOc1nsnc1O[C@@H]1CN2CCC[C@H]1C2 (relative stereo)", "IC50 (nM)": 0.59}
{"compound": "COc1ccc(CCCOc2nsnc2OC2CN3CCC2CC3)cn1 (racemic)", "IC50 (nM)": 17}
{"compound": "FC(F)(F)CCCOc1nsnc1OC1CC2CCC1NC2 (mixture of isomers) [Compound 160]", "IC50 (nM)": 14}
{"compound": "c1csc(CCOc2nsnc2O[C@@H]2CN3CCC[C@H]2C3)c1 (relative stereo)", "IC50 (nM)": 1.7}
{"compound": "c1ccc(SCCOc2nsnc2OC2CN3CCC2CC3)cc1 (racemic)", "IC50 (nM)": 19}
{"compound": "c1ccc2cc(CCOc3nsnc3O[C@@H]3CN4CCC[C@H]3C4)ccc2c1 (relative stereo)", "IC50 (nM)": 15}
{"compound": "CCCCCCOc1nsnc1O[C@@H]1CN2CCC[C@H]1C2 (relative stereo)", "IC50 (nM)": 2.73}
{"compound": "c1ccc2c(OCCOc3nsnc3OC3CN4CCC3CC4)cccc2c1 (racemic)", "IC50 (nM)": 61}
